- System: Pseudomonas aeruginosa
- measurement description: Antibacterial activity against Pseudomonas aeruginosa at 50 to 100 uM after 24 hrs by well diffusion method
- Format: functional
Answer each item with its documented inhibition zone.
Numeric answer only, unit mm assumed.

For Nn1c(S)nnc1CSc1nnc(Cc2csc(NC(=O)CCl)n2)n1NC(=O)c1cccc([N+](=O)[O-])c1 , what is its reported inhibition zone?
26

For CC(=O)Nc1nc(Cc2nnc(SCSc3nnc(Cc4csc(NC(C)=O)n4)n3NC(=O)c3cccc([N+](=O)[O-])c3)n2NC(=O)c2cccc([N+](=O)[O-])c2)cs1 , what is its reported inhibition zone?
32

For O=C(O)CCNc1nc(Cc2nnc(SCC(=O)NNC(=O)CCl)n2NC(=O)c2cccc([N+](=O)[O-])c2)cs1 , what is its reported inhibition zone?
26

For Nn1c(S)nnc1CSc1nnc(Cc2csc(NC(=O)c3ccccc3)n2)n1NC(=O)c1cccc([N+](=O)[O-])c1 , what is its reported inhibition zone?
27

For O=C(CSc1nnc(Cc2csc(NC(=O)c3ccccc3)n2)n1NC(=O)c1cccc([N+](=O)[O-])c1)N/N=C/c1ccccc1 , what is its reported inhibition zone?
30

For Nn1c(S)nnc1CSc1nnc(Cc2csc(NC(=O)CCl)n2)n1NC(=O)c1ccc(Cl)cc1 , what is its reported inhibition zone?
20

For COC(=O)CSc1nnc(Cc2csc(NCCC(=O)O)n2)n1NC(=O)c1cccc([N+](=O)[O-])c1 , what is its reported inhibition zone?
22

For N#CCSc1nnc(Cc2csc(NC(=O)CCl)n2)n1NC(=O)c1ccc(Cl)cc1 , what is its reported inhibition zone?
28

For O=C(O)CCNc1nc(Cc2nnc(S)n2NC(=O)c2cccc([N+](=O)[O-])c2)cs1 , what is its reported inhibition zone?
25

For Nn1c(S)nnc1Cc1csc(NCCC(=O)O)n1 , what is its reported inhibition zone?
22

For Nn1c(S)nnc1Cc1csc(NC(=O)CCl)n1 , what is its reported inhibition zone?
17

For CC(=O)NNC(=O)CSc1nnc(Cc2csc(NC(=O)CCl)n2)n1NC(=O)c1cccc([N+](=O)[O-])c1 , what is its reported inhibition zone?
24

For CC(=O)NNC(=O)CSc1nnc(Cc2csc(NC(=O)c3ccccc3)n2)n1NC(=O)c1ccc(Cl)cc1 , what is its reported inhibition zone?
24

For COC(=O)CSc1nnc(Cc2csc(NC(=O)CCl)n2)n1NC(=O)c1cccc([N+](=O)[O-])c1 , what is its reported inhibition zone?
24

For NNC(=O)CSc1nnc(Cc2csc(NC(=O)c3ccccc3)n2)n1NC(=O)c1cccc([N+](=O)[O-])c1 , what is its reported inhibition zone?
24

For CC(=O)Nc1nc(Cc2nnc(SCC(=O)NNC(=O)c3ccccc3)n2NC(=O)c2ccc(Cl)cc2)cs1 , what is its reported inhibition zone?
22

For COC(=O)CSc1nnc(Cc2csc(NC(=O)CCl)n2)n1NC(=O)c1ccc(Cl)cc1 , what is its reported inhibition zone?
16

For CC(=O)Nc1nc(Cc2nnc(SCC(=O)NN)n2NC(=O)c2cccc([N+](=O)[O-])c2)cs1 , what is its reported inhibition zone?
23

For O=C(CSc1nnc(Cc2csc(NC(=O)CCl)n2)n1NC(=O)c1ccc(Cl)cc1)N/N=C/c1ccccc1 , what is its reported inhibition zone?
19

For O=C(CSc1nnc(Cc2csc(NC(=O)CCl)n2)n1NC(=O)c1cccc([N+](=O)[O-])c1)N/N=C/c1ccccc1 , what is its reported inhibition zone?
30

For COC(=O)CSc1nnc(Cc2csc(NCCC(=O)O)n2)n1NC(=O)c1ccc(Cl)cc1 , what is its reported inhibition zone?
24

For CC(=O)Nc1nc(Cc2nnc(SCC(=O)NN)n2NC(=O)c2ccc(Cl)cc2)cs1 , what is its reported inhibition zone?
16
